Test system: PRKG1
Details: concentration: 1 μM, replicates: in singlicate; n = 1;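 note: KINOMEscan kinase panel screen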
measurementKind: %Inh
Reply with the number and its unit after it.

# moleculeSmiles, testedTarget, %Inh
rows = [
    ("COc1ccc(Nc2ncc(C#N)c(Nc3ccccc3C(N)=O)n2)cc1N1CCN(C)CC1.Cl", "PRKG1", "76%"),
]

# input Quick one: %Inh of O=C1NC(=O)C(N2CCc3ccccc32)=C1c1cccc(Cl)c1 ?
# output 0%

# input Look up %Inh: COC(=O)Nc1nc2cc(Oc3ccc(NC(=O)Nc4cc(F)ccc4F)cc3)ccc2[nH]1.Cl
# output 0%

# input Look up %Inh for this molecule: Cc1c2ccc(N(C)c3ccnc(Nc4cccc(S(N)(=O)=O)c4)n3)cc2nn1Cc1ccccc1.Cl.Cl
# output 0%

----------
System: MERTK
Settings: concentration: 1 μM, replicates: in singlicate; n = 1
Measured %Inh, listed per entry.
Just the number in %, nothing appended.

# input Give the measured %Inh of N#Cc1c(N2CCOCC2)sc(-c2ccn[nH]2)c1-c1ccc(Cl)cc1 .
# output 0

# input Can you look up the measured %Inh of [2H]C([2H])(c1cccc(C(F)(F)F)c1C)n1ccn2c(=O)nc(N3CCOCC3)cc12 [GSK2336394] for me?
# output 0

# input // returns reported %Inh for input CCc1ccnc(/C=C/c2n[nH]c3cc(Sc4ccccc4C(=O)NC)ccc23)c1
# output 0

# input What does the data say about its %Inh? Entry: Cc1cccc(-c2nc(-c3ccc(S(C)(=O)=O)cc3)sc2-c2ccncc2)c1
# output 12

# input Which %Inh value is on record for Fc1ccc(-c2nn3c(OCC(F)(F)F)cccc3c2-c2ccncc2)cc1 [GW514784] ?
# output 0

----------
Test system: DAPK1
Details: concentration: 1 μM, replicates: in singlicate; n = 1
Overview of recorded %Inh for various compounds

Consider the reported %Inh for these compounds:
# compound, measurementKind, reportedResult
data = [
    ("Nc1nc(-c2ccc3c(N)n[nH]c3c2)cc(N2CCCC2)n1 [GSK2227430]", "%Inh", "0%"),
    ("Cc1nnc(-c2ccc3ncc(-c4ccc(S(C)=O)cc4)n3c2)o1 (stereo not shown)", "%Inh", "22%"),
    ("COc1ccc(S(=O)(=O)NC2CCN(c3cc(C)nc(Nc4cccc(C#N)c4)n3)CC2)cc1.O=C(O)C(F)(F)F [GSK1653539]", "%Inh", "0%"),
    ("CSc1ccc(-c2cc3ncnc(SCC(=O)O)c3s2)cc1", "%Inh", "12%"),
    ("CN(C(=O)c1ccc(-c2cc(-c3c[nH]nc3-c3ccccn3)ccn2)cc1)C1CCOCC1 [GW810083]", "%Inh", "11%"),
    ("NS(=O)(=O)c1cccc(-c2ccc3nccc(-c4cccc(S(N)(=O)=O)c4)c3c2)c1 [GW867253]", "%Inh", "0%"),
    ("COc1ccc(Nc2nccc(N3CCC(NC(=O)Nc4cc(C)ccc4C)C3)n2)cc1 (stereo not shown) [GSK1379741]", "%Inh", "0%"),
    ("CCc1nc(-c2cccc(C)c2)c(-c2ccnc(NCc3ccccc3)c2)s1", "%Inh", "2%"),
    ("O=c1cc(N2CCOCC2)nc2n(Cc3cccc(C(F)(F)F)c3)ccn12 [GSK2297543]", "%Inh", "0%"),
]

Note: attention shifts to another entry.
# input Param item = O=c1cc(N2CCOCC2)nc2n(Cc3cccc4ccccc34)ccn12 [GSK2333389] ; retrieve measured %Inh.
# output 0%

Values compiled from paper PMC5540273.
